System: PRMT1 (protein arginine N-methyltransferase 1)
Assay procedure: PRMT1 binders on small-molecule microarrays, primary screen, biochemical, small-molecule microarray, 635 nm fluorescence (AID 1088);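 also: binding of Prmt1 protein to compounds spotted on small-molecule microarray slides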
Details: small-molecule microarray binding, higher = more signal
Quantity name: composite z-score

>>> observed("CC(C)N1C(=O)c2ccccc2[C@@H](C(=O)NCc2ccccc2)[C@@H]1c1ccc(CO)cc1")
-0.238
>>> observed("COCCOC(=O)N1C(=O)[C@@]2(c3cc(C#CCNC(N)=O)ccc31)[C@H](c1ccccc1OCCO)N1[C@H](c3ccccc3)[C@H](c3ccccc3)OC(=O)[C@H]1[C@@H]2C(=O)Nc1nc2ccccc2s1")
1.28
>>> observed("NCCCCCNC(=O)[C@H]1C[C@H]2C(=O)NCC(=O)N2[C@H]1c1ccc(O)cc1")
1.55
>>> observed("CCCC[C@@H](O)C1=C(C)C[C@H]2C(=O)N(C)C(=O)[C@H]2[C@H]1CO")
0.54

* * *

Assay procedure: MM1S cell viability effects, profiling panel, calcein-AM fluorescence, 48 h, basal (AID 1165);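 also: viability of MM1S multiple myeloma cells under basal unstimulated conditions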
Details: higher = more signal
A collection of compounds and their measured z-score
Quantity name: z-score

>>> observed("COc1ccc(/C=C/C(=O)c2cccc(OCC(=O)OC(C)(C)C)c2)cc1")
-2.97
>>> observed("CC(=O)NCCCC[C@@H]1NC(=O)[C@@H]2C[C@H](C(=O)O)[C@H](c3cccc(OCCO)c3)N2C1=O")
-1.8
>>> observed("O=C1c2ccccc2[C@@]2(Cc3ccccc3N(CC(F)(F)F)C2=O)[C@H](c2ccc(CO)cc2)N1Cc1ccccc1C(F)(F)F")
0.733
>>> observed("Cc1ccc(S[C@]2(C(=O)NCCN3CCOCC3)CC(=O)N(Cc3cc(C(F)(F)F)cc(C(F)(F)F)c3)[C@@H]2c2ccc(CO)cc2)cc1")
1.15
>>> observed("C#CCOc1ccc(C[C@H]2C(=O)O[C@H](Cc3ccccc3)[C@H](/C=C/C3CC3)N2CC#C)cc1")
-1.63
>>> observed("O=C(NC1CC1)[C@@H]1c2ccccc2C(=O)N(Cc2ccccc2C(F)(F)F)[C@H]1c1ccc(CO)cc1")
-0.124
>>> observed("COc1ccc([Si](C)(C)[C@H]2[C@H](CCO)O[C@@]3(C(=O)N(Cc4ccc(N5C(=O)c6cccc7cccc5c67)cc4)c4ccccc43)[C@@H]2C)cc1")
-1.23

* * *

Assay procedure: cytotoxicity in PAX8-dependent RMG-1 cells, dose response, cell-based, cherry-pick (AID 687029);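 also: cells exposed to compound for 96 hours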
Details: RMG-1 viability, CellTiterGlo ATP luminescence, 96 h; series mostly up to 35 µM
Measured potencies and affinities stand elsewhere. Calls of active or inactive are those of the source.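 How the source made its calls: active means signal drop whose fitted half-maximal concentration is at most twice the top valid dose, in every test run; inconclusive means mixed calls across runs, poor fit, or flat 30 to 70% inhibition; inactive means wrong direction, flat within 30%, or potency beyond limit.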
Quantity name: activity change, negative = inhibition

>>> observed("Cc1ccc(S(=O)(=O)N(C)C[C@H]2Oc3ccc(NC(=O)Nc4ccc(C(F)(F)F)cc4)cc3CC(=O)N([C@@H](C)CO)C[C@H]2C)cc1")
"inactive"
>>> observed("Cc1onc(C(=O)N2CCN(C(c3ccccc3)c3ccccc3)CC2)c1[N+](=O)[O-]")
"inactive"
>>> observed("C[C@@H]1CN([C@@H](C)CO)C(=O)c2cc(NC(=O)Nc3ccc(F)cc3)ccc2O[C@@H](C)CCCCO[C@H]1CN(C)Cc1ccc(C(F)(F)F)cc1")
"inactive"
>>> observed("O=C(Nc1cc(S(=O)(=O)N2CCCCC2)ccc1Cl)c1ccccc1NS(=O)(=O)c1ccc(F)cc1")
"inactive"
>>> observed("Cc1cccc(-c2ccc([C@H]3[C@@H](CO)N4CCCCN(S(=O)(=O)c5cccc(C)c5)C[C@@H]34)cc2)c1")
"inactive"
>>> observed("O=C(C[C@@H]1CC[C@@H]2[C@H](COC[C@H](O)CN2S(=O)(=O)c2ccccc2Cl)O1)N1CCC(Cc2ccccc2)CC1")
"inactive"
>>> observed("Cc1ccccc1-c1ccc([C@@H]2[C@H](CO)N3CCCCN(C(=O)Nc4cccc(F)c4)C[C@@H]23)cc1")
"inactive"
